# Procedure Details: E. coli acrAB mutant growth effects, primary screen, E. coli filamentation inducers, strain DRC39, OD650, 24 h (AID 1178);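 also: growth measured as culture turbidity by optical density at 650 nm; test concentration not given here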
# Study Conditions: higher = more signal, called active from +8 up or from −8 down
Measured z-score accompanies every entry in the list below.
Value Type: z-score

1) COC(=O)C[C@H]1O[C@]2(C(=O)N(Cc3ccccc3)c3ccc(I)cc32)[C@@H](C)[C@@H]1[Si](C)(C)c1ccc(OC)cc1 = -0.493
2) CCCNC(=O)[C@@]1(Sc2ccc(C)cc2)CC(=O)N(Cc2ccccc2Cl)[C@@H]1c1ccc(CO)cc1 = 1.23
3) O=C1O[C@@H](c2ccccc2)[C@@H](c2ccccc2)N2[C@@H](c3ccc(O)cc3)[C@]3(C(=O)Nc4ccccc43)[C@@H](C(=O)N3CCN(c4ncccn4)CC3)[C@H]12 = 0.208
4) O=C/C=C/c1ccccc1Cl = 0.834
5) CCc1cccc(NC(=O)O[C@H]2[C@H](OC(=O)Nc3ccccc3)[C@@H](OC(=O)Nc3ccccc3)[C@@H](OC)O[C@@H]2CO)c1 = 1.47
6) Cc1ccc(S(=O)(=O)c2cc3oc2CC[C@@H](CO)NC(=O)N(C)Cc2cn(nn2)C[C@H](Cc2ccccc2)NC3=O)cc1 = 1.74
7) O=C1O[C@H](c2ccccc2)[C@H](c2ccccc2)N2[C@H]1[C@@H](C(=O)NC[C@H](O)c1ccccc1)[C@]1(C(=O)Nc3ccc(C#CC4=CCCCC4)cc31)[C@H]2c1ccc(OCCO)cc1 = -0.227
8) CO[C@H]1COC(=O)[C@@H](C)NC(=O)CC=C[C@@H](C)[C@H](OC)COC(=O)CC=C[C@@H]1C = 1.03
9) CO[C@@H]1COC(=O)[C@H](C)NC(=O)CC=C[C@@H](C)[C@H](NS(=O)(=O)c2ccc(C)cc2)COC(=O)CC=C[C@@H]1C = 0.798
10) CCOC(=O)C[C@H]1[C@H](OC(=O)c2ccccc2-c2ccccc2)[C@@H](NC(=O)C2CCCCC2)c2cc(OCCCO)ccc2N1C(=O)c1ccccc1 = 2.32
11) C=CC(=O)O[C@@H](Cc1ccccc1)[C@H]1C2C=CCCC=C2CN1Cc1cccc(Cl)c1 (stereo partly drawn) = 2.63
12) COC(=O)[C@@]1(Cc2ccc(OC)cc2)[C@H]2c3cc(C(=O)N(C)C)n(CCc4ccc(OC)c(Br)c4)c3C[C@H]2CN1C(=O)c1ccccc1 = -0.307
13) CCCC=C(CCC)[C@@H](NC(=O)c1ccc(C(F)(F)F)cc1)c1ccccc1 = 0.0948
14) CC(=O)NCCCC[C@@H]1NC(=O)[C@H]2C[C@@H](C(=O)NCCCCCCN(C)C)[C@@H](c3cccc(OCCO)c3)N2C1=O = 0.617
15) CCOC(=O)C[C@H]1[C@H](OC(=O)Cc2ccc3c(c2)OCO3)[C@@H](NC(=O)c2ccc3ccccc3c2)c2cc(OCCCO)ccc2N1C(=O)Cc1ccc(OC)cc1 = 0.37
16) COC(=O)C(CC#Cc1ccc2c(c1)[C@]1(C(=O)N2)[C@H](C(=O)N2CCCCCCC2)[C@H]2C(=O)O[C@H](c3ccccc3)[C@H](c3ccccc3)N2[C@@H]1c1ccc(O)cc1)C(=O)OC = -0.177
17) CC(C)=C1C(=O)C(c2ccccc2)=C2CN3C(=O)N(CCc4ccccc4)C(=O)[C@]3(Cc3ccccc3)[C@H]21 = -0.652
18) O=C(NCc1ccccc1)[C@@]1(Cc2ccccc2)COC(c2ccc(OCCCO)cc2)=N1 = 0.11
19) COC(=O)[C@@]1(Cc2ccccc2)[C@H]2c3cc(C(=O)N4CCCC4)n(CCN4CNCC4=O)c3C[C@H]2CN1C(=O)c1ccccc1 = 0.499
20) CCCCCCc1nc(-c2cc(C)c(OC)c(C)c2)cc2c1[Si](C(C)C)(C(C)C)O[C@H]2c1ccccc1 = 0.609
21) O=C1c2ccccc2[C@](Cc2ccccc2I)(C(=O)NCc2ccccc2)[C@H](c2ccc(CO)cc2)N1Cc1ccccc1C(F)(F)F = 0.0438
22) CCN1C(C)=C(C(=O)OC)[C@@H](c2ccccc2)N2C(=O)[C@@]3(C(=O)OC)O[C@@]12[C@@H]1C(=O)CCC[C@@H]13 = -0.275
23) Cc1ccc(S(=O)(=O)N2[C@@H](c3ccccc3)C(C(=O)O)=CC[C@H]2c2ccccc2)cc1 = -0.992
24) C[C@H]1NC(=O)[C@@H](C)NC(=O)[C@@]23C(=O)N[C@@H](Cc4ccccc4)C2[C@H](C)[C@@]2(C)O[C@H]2C3/C=C/C/C=C\CNC1=O (stereo partly drawn) = 2.33
25) CC(=O)NCCCC[C@@H]1NC(=O)[C@@H]2C[C@H](C(=O)NCc3ccc(F)cc3)[C@H](c3cccc(OCCO)c3)N2C1=O = -0.34
26) C=C(COC)C(=O)CC[C@H](OC(=O)c1ccccc1-c1ccccc1C(=O)O)c1cccc(OCCO)c1 = -1.27
27) Cc1ccc(N2C(=O)c3ccccc3[C@@H](C(=O)NCc3ccccc3)[C@@H]2c2ccc(CO)cc2)nc1 = -0.0753
28) CO[C@H]1COC(=O)[C@H](C)NC(=O)CC=C[C@@H](C)[C@H](NS(=O)(=O)c2ccc(C)cc2)COC(=O)CC=C[C@@H]1C = 0.127
